measured-on: T1, wild-type human PTH/PTHrP receptor (hP1R-WT) (human, UniProt Q03431 27-593)
T1 sequence (looked up): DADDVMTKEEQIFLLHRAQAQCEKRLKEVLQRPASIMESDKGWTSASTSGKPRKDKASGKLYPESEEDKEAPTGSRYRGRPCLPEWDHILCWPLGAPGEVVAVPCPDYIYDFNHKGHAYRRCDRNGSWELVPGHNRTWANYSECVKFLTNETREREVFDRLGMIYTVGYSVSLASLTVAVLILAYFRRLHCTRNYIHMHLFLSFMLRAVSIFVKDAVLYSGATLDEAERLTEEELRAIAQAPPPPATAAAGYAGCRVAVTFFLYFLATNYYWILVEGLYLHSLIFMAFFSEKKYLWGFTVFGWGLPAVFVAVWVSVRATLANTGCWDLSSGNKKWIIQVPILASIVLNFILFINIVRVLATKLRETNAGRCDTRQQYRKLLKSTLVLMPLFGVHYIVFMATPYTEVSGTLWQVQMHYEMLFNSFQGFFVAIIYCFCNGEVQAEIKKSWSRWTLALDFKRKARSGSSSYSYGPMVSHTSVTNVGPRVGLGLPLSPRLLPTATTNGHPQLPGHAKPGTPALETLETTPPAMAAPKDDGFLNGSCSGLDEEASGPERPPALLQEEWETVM
assay-comment: cell-based or functional assay
Square brackets hold non-standard residues; d marks the D form. Ends that are not written are not given here. hArg = N=C(N)NCCCC[C@H](N)C(=O)O; Aib = CC(C)(N)C(=O)O
readout-label: cAMP EMax(obs.) (pmole/well)
Just the number please, in pmole/well, no unit attached.

Request: Could you share which cAMP EMax(obs.) value was measured for AVAEIQLMH[Aib][hArg]AKW-NH2 (N-terminus assumed; SMILES CC[C@H](C)[C@H](NC(=O)[C@H](CCC(=O)O)NC(=O)[C@H](C)NC(=O)[C@@H](NC(=O)[C@H](C)N)C(C)C)C(=O)N[C@@H](CCC(N)=O)C(=O)N[C@@H](CC(C)C)C(=O)N[C@@H](CCSC)C(=O)N[C@@H](Cc1c[nH]cn1)C(=O)NC(C)(C)C(=O)N[C@@H](CCCCNC(=N)N)C(=O)N[C@@H](C)C(=O)N[C@@H](CCCCN)C(=O)N[C@@H](Cc1c[nH]c2ccccc12)C(N)=O, Aib scan of [M]PTH(1-14); Aib replaces the Gln^10 of [M]; also called 631 Aib-10) [[Aib^10,M]PTH(1-14)] ?
Response: 214

Request: // query: AVSEIQLXHNLGKHLASVERXQWLRKKLQDVHNY (Nle (norleucine) at 8 and 21; C-terminal amide, also called 92 PTH(1-34); 92.5 PTH(1-34)) [[Nle^8,21,Tyr^34]PTH(1-34)amide (rat sequence)]
Response: 280

Request: // query: AVA[Aib]IQLMHQ[hArg]AKW-NH2 (N-terminus assumed; SMILES CC[C@H](C)[C@H](NC(=O)C(C)(C)NC(=O)[C@H](C)NC(=O)[C@@H](NC(=O)[C@H](C)N)C(C)C)C(=O)N[C@@H](CCC(N)=O)C(=O)N[C@@H](CC(C)C)C(=O)N[C@@H](CCSC)C(=O)N[C@@H](Cc1c[nH]cn1)C(=O)N[C@@H](CCC(N)=O)C(=O)N[C@@H](CCCCNC(=N)N)C(=O)N[C@@H](C)C(=O)N[C@@H](CCCCN)C(=O)N[C@@H](Cc1c[nH]c2ccccc12)C(N)=O, Aib scan of [M]PTH(1-14); also called 625 Aib-4) [[Aib^4,M]PTH(1-14)]
Response: 221
